Target: γ-secretase (Homo sapiens, UniProt P49768)
Construct: endogenous in cells; host or cells: SKNBE2 human neuroblastoma cells (carrying hAPP 695 wild type as substrate)
Test: Screening for γ-secretase-modulating activity: Aβtotal in supernatant of SKNBE2 cells carrying hAPP 695 wild type (Alphalisa)
Assay type: cell-based
Conditions: SKNBE2 human neuroblastoma cells carrying hAPP 695 wild type, overnight incubation, Aβtotal in cell supernatant
Method: Screening was carried out using SKNBE2 human neuroblastoma cells carrying the hAPP 695—wild type, grown in Dulbecco's Modified Eagle's Medium/Nutrient mixture F-12 (DMEM/NUT-mix F-12) (HAM) provided by Invitrogen (cat no. 10371-029) containing 5% Serum/Fe supplemented with 1% non-essential amino acids, 1-glutamine 2 mM, Hepes 15 mM, penicillin 50 U/ml (units/ml) en streptomycin 50 μg/ml. Cells were grown to near confluency. […]
pIC50: −log10 of the molar value.
pIC50 values by entry

CCn1c(C)c(CN2C(=O)c3ccc(-n4cnc(C)c4)c(=O)n3C[C@H]2C)c2cc(C(F)(F)F)ccc21 [compound 182]: 5.60
Cc1cn(-c2ccc3n(c2=O)CC(C)N(Cc2cc(OCC4CC4)cc(C(F)(F)F)c2)C3=O)cn1.Cl (centres unmarked) [compound 6]: < 5.00

For the compound shown here, Cc1cn(-c2ccc3n(c2=O)CCN(C(C)c2cccc(Cl)c2Cl)C3=O)cn1 (single isomer, unassigned) [10a] , give the reported pIC50.
< 5.00

For the compound shown here, Cc1cn(-c2ccc3n(c2=O)C[C@@H](C)N(Cc2cc(N4CCC(C(F)(F)F)CC4)ccc2Cl)C3=O)cn1 [compound 81] , give the reported pIC50.
< 5.00

For the compound shown here, Cc1cn(-c2ccc3n(c2=O)C[C@@H](C)N(Cc2c[nH]c4c(C(F)(F)F)cc(F)cc24)C3=O)cn1 [compound 257] , give the reported pIC50.
< 5.00

For the compound shown here, Cc1cn(-c2ccc3n(c2=O)CC(C)N(C(C)c2cn(C)c4c(F)cc(Cl)cc24)C3=O)cn1 (single isomer, unassigned) [compound 224] , give the reported pIC50.
5.73

For the compound shown here, Cc1cn(-c2ccc3n(c2=O)C[C@@H](C)N(Cc2c[nH]c4ccc(OC(F)(F)F)cc24)C3=O)cn1 [compound 252] , give the reported pIC50.
5.30

For the compound shown here, Cc1cn(-c2ccc3n(c2=O)CC(C)N(Cc2c[nH]c4cc(Br)ccc24)C3=O)cn1 (centres unmarked) [compound 125] , give the reported pIC50.
< 5.00

For the compound shown here, Cc1cn(-c2cc(Cl)c3n(c2=O)C[C@@H](C)N(Cc2cc(C(F)(F)F)cc(C(F)(F)F)c2)C3=O)cn1 [compound 159] , give the reported pIC50.
< 5.00

For the compound shown here, Cc1cn(-c2ccc3n(c2=O)CCN(Cc2ccc(OC(F)(F)F)cc2C)C3=O)cn1 [compound 75] , give the reported pIC50.
< 5.00

For the compound shown here, COc1cc(CN2C(=O)c3ccc(-n4cnc(C)c4)c(=O)n3C[C@H]2C)cc(C(F)(F)F)c1 [compound 68] , give the reported pIC50.
< 5.00

For the compound shown here, Cc1cn(-c2ccc3n(c2=O)CCN(C(C)c2cn(C)c4cc(F)c(Cl)cc24)C3=O)cn1 (single isomer, unassigned) [compound 185] , give the reported pIC50.
5.23

For the compound shown here, Cc1cncn1-c1ccc2n(c1=O)CCN(Cc1ccccc1)C2=O [compound 89] , give the reported pIC50.
< 5.00

For the compound shown here, Cc1cn(-c2ccc3n(c2=O)C[C@@H](C)N(C(C)c2cc(Cl)cc(Cl)c2)C3=O)cn1 (single isomer, unassigned) [compound 210] , give the reported pIC50.
< 5.00
